Molecular target: SARM1 (ARM-SAM-TIR, full length SARM1) (Homo sapiens, UniProt Q6SZW1)
Sequence (Q6SZW1 with tags, fused parts or gaps): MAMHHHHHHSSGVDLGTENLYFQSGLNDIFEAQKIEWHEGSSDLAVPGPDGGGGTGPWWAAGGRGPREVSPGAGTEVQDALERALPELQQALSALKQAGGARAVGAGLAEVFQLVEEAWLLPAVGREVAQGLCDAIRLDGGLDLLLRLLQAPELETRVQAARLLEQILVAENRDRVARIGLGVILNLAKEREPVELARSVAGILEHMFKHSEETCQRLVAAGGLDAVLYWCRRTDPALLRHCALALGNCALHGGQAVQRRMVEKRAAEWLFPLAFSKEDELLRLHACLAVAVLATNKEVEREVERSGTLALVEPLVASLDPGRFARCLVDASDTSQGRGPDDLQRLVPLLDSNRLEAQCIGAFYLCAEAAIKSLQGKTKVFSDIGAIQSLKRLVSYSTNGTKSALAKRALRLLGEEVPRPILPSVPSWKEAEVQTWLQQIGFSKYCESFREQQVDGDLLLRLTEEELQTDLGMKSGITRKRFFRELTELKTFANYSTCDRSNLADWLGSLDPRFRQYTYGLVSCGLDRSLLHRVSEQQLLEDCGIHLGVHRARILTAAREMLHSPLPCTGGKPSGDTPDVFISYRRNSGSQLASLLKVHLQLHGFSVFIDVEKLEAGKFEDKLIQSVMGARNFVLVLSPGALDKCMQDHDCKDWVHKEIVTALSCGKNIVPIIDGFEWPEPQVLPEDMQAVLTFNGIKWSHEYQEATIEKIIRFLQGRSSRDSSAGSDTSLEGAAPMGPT
Test: biochemical
Conditions: SARM1 IC50 (nM), ARM-SAM-TIR lysate 5 μg/mL from NRK1-HEK293T cells, 2 h pre-incubation, 5 uM NAD+, 2 hr room temperature
Measured Metric: IC50

Reference set (5 entries):
CC1(Cc2ccc(Cl)cc2)CCN(c2nc(-c3ccncc3)n[nH]2)C1=O (stereo not shown): 501 to 1000 nM
O=C1C(Cc2ccc(Cl)c(F)c2)CCN1c1cc(-c2ccncc2)n[nH]1 (stereo not shown): < 50 nM
O=C1C(Cc2ccc(F)nc2)CCN1c1[nH]nc(-c2ccncc2)c1F (single isomer, unassigned) [I-33* (peak 1)]: 51 to 100 nM
N#Cc1c(-c2ccncc2)n[nH]c1N1CCCC(Cc2ccc(Cl)nc2)C1=O (stereo not shown): 101 to 500 nM
N#Cc1ccc(CC2CCN(c3[nH]nc(-c4ccncc4)c3F)C2=O)cc1F (single isomer, unassigned) [I-25* (peak 1)]: 101 to 500 nM

Fill in IC50 for record CC1(Cc2ccc(Cl)cc2)CCCN(c2nc(-c3ccncc3)n[nH]2)C1=O (single isomer, unassigned) [I-54* (peak 2)]
101 to 500 nM

Fill in IC50 for record O=C1C(Cc2cnc(Cl)c(F)c2)CCCN1c1nnc(-c2ccncc2)[nH]1 (stereo not shown)
< 50 nM

Fill in IC50 for record O=C1[C@H](Cc2ccc(Cl)cc2)NCCN1c1cc(-c2ccncc2)n[nH]1
101 to 500 nM

Fill in IC50 for record N#Cc1ccc(CC2CCCN(c3cc(-c4ccncc4)n[nH]3)C2=O)cc1 (stereo not shown)
< 50 nM

Fill in IC50 for record O=C1C(Cc2ccc(Cl)nc2)CCCCN1c1cc(-c2ccncc2)n[nH]1 (single isomer, unassigned) [I-40* (peak 1)]
> 1000 nM

Fill in IC50 for record O=C1C(Cc2ccc(Cl)cc2)CCN1c1cc(-c2ccncc2)n[nH]1 (stereo not shown)
< 50 nM

Fill in IC50 for record O=C1C(Cc2ccc(Cl)nc2)CCCN1c1nnc(-c2ccncc2)[nH]1 (stereo not shown) [Compound I-55]
51 to 100 nM

Fill in IC50 for record O=C1C(Cc2cnc(Cl)c(F)c2)CCN1c1nnc(-c2ccncc2)[nH]1 (stereo not shown)
51 to 100 nM

Fill in IC50 for record O=C1C(Cc2ccc(Cl)nc2)CCCN1c1[nH]nc(-c2ccncc2)c1F (stereo not shown)
101 to 500 nM

Fill in IC50 for record N#Cc1cc(CC2CCCN(c3cc(-c4ccncc4)n[nH]3)C2=O)ccc1F (stereo not shown)
< 50 nM

Fill in IC50 for record O=C1C(Cc2ccc(Cl)nc2)OCCN1c1nnc(-c2ccncc2)[nH]1 (stereo not shown)
101 to 500 nM

----------
We begin with a simple list: items and their reported IC50.
Target: SARM1 (ARM-SAM-TIR, full length SARM1) (Homo sapiens)
Assay: biochemical
Conditions: SARM1 IC50 (nM), ARM-SAM-TIR lysate 5 μg/mL from NRK1-HEK293T cells, 2 h pre-incubation, 5 uM NAD+, 2 hr room temperature

N#Cc1cc(CC2CCCN(c3nc(-c4ccncc4)n[nH]3)C2=O)ccc1F (stereo not shown): 101 to 500 nM

Fill in IC50 for record N#Cc1ccc(CC2CCN(c3cc(-c4ccncc4)n[nH]3)C2=O)cc1 (stereo not shown)
101 to 500 nM

Fill in IC50 for record N#Cc1ccc(CC2CCN(c3cc(-c4ccncc4)n[nH]3)C2=O)cc1F (stereo not shown) [Compound I-37]
51 to 100 nM

Fill in IC50 for record N#Cc1ccc(CC2CCN(c3nc(-c4ccncc4)n[nH]3)C2=O)cn1 (stereo not shown)
> 1000 nM
